# Test system: M19-MEL
# TEST_DESCRIPTION: NCI tumour cell line growth inhibition, 48 h
The source made the active and inactive calls. Cut-off read from the data, not from the text of the source: active = GI50 up to about 1.1 µM and inactive = higher.
RECORDED_ENDPOINT: GI50

> print(dat)
                                   molecule  recorded.endpoint                value
1  COc1cc2c(cc1OC)[Se]c1cc(OC)c(OC)cc1[Se]2               GI50   > 10 µM (inactive)
2  COc1ccc2cc3n(c(=O)c2c1)CCc1c-3cc(OC)c(OC)c1OC               GI50  > 100 µM (inactive)
3  CC1=C2C(O)C(C(C)CO)C(O)CC2(C)C(O)CC1 (stereo unspecified)               GI50  > 100 µM (inactive)
4         CC(=O)OCc1ncccc1C(OC(C)=O)OC(C)=O               GI50  > 100 µM (inactive)
5           c1ccc2c(c1)OCCOCCOc1ccccc1OCCO2               GI50   41.9 µM (inactive)
6  COc1ccc2c3c([nH]c2c1[N+](=O)[O-])C(C)N(C)CC3 (stereo unspecified)               GI50  > 100 µM (inactive)

* * *

# System: UACC-257
# TEST_DESCRIPTION: NCI tumour cell line growth inhibition, 48 h
Active and inactive are the calls of the source. Cut-off read from the data, not from the text of the source: active = GI50 up to about 1.1 µM and inactive = higher.
RECORDED_ENDPOINT: GI50

> print(dat)
                                   compound  tested.system  recorded.endpoint                 value
1  CCOC(=O)C(NC(=O)c1ccccc1)(Nc1ccc(S(=O)(=O)Nc2cc(C)nc(C)n2)cc1)C(F)(F)F (centres undefined)       UACC-257               GI50   > 100 µM (inactive)
2             CCOc1ccc(OCC(=O)O)c2c1CCCC2=O       UACC-257               GI50   > 100 µM (inactive)
3  COc1c(C)c(C/C=C(\C)CCCCO[Si](c2ccccc2)(c2ccccc2)C(C)(C)C)c(OC)c(OC)c1OC       UACC-257               GI50  > 46.5 µM (inactive)
4  COC(=O)C1=C(O)C(C(=O)OC)[C@]2(O)[C@H](C(=O)OC)[C@H]1C[C@@H](c1ccc(Cl)cc1Cl)[C@H]2C(=O)OC (some centres undefined)       UACC-257               GI50      10 µM (inactive)

* * *

# System: SK-MEL-28
# TEST_DESCRIPTION: NCI tumour cell line growth inhibition, 48 h
Active and inactive are the calls of the source. No stated cut-off is given here; in the data, active = GI50 up to about 1.1 µM and inactive = higher.
Outcome codes: yes for active, no for inactive

> print(dat)
                                   molecule  tested.system  label.class
1            Oc1c(Br)c(-c2ccccc2)nc2ccccc12      SK-MEL-28           no
2  CO/C1=C\C(C)=C\C(C)C(O)C(C)C/C(C)=C/C=C/C(OC)C(C(C)C(O)C(C)C2(O)CC(O)C(C)C(C(C)C)O2)OC1=O (centres undefined)      SK-MEL-28          yes
3                 CC(=O)Nc1c2sscc-2n(C)c1=O      SK-MEL-28           no
4  O=C(Nc1ccccc1)c1cc(S(=O)(=O)Nc2nc3cccnc3[nH]2)c(SSc2cc(Cl)c(C(=O)Nc3ccccc3)cc2S(=O)(=O)Nc2nc3cccnc3[nH]2)cc1Cl      SK-MEL-28           no
5  O=C(Nc1nc(C23CC4CC(CC(C4)C2)C3)cs1)c1cc2ccc(O)cc2oc1=O      SK-MEL-28           no
6  NP(=O)(OCC1=CC(=O)c2ccccc2C1=O)N(CCBr)CCBr (centres undefined)      SK-MEL-28           no
7  CC(=O)OCC1OC(n2c(C)c(C)c(C)c(C#N)c2=S)C(OC(C)=O)C(OC(C)=O)C1OC(C)=O (centres undefined)      SK-MEL-28           no
8  CCOC(OCC)(OCC)C(Br)CC (centres undefined)      SK-MEL-28           no
9  COC(=O)[C@@]12C(=O)C=CC(=O)C1C1C(=CC2C)OC2OC3(CCCCC3)OC21 (some centres undefined)      SK-MEL-28           no

Entry source: ChEMBL document CHEMBL1201862
